test system: HIV-1 Env-pseudoviruses (30-strain panel); test: Neutralization assay, cross-clade 30-strain panel (Env-pseudoviruses, TZM-bl target cells); format: cell-based; details: Human immunodeficiency virus 1, TZM-bl, DJ263.8 (Clade AG); read-out: IC50
Each record here notes measured IC50.

Some compounds with known IC50 results, for comparison:
1. O=C(C(=O)N1CCN(C(=O)c2ccccc2)CC1)c1c[nH]c2c(F)ccc(Br)c12; > 20000 nM
2. COc1cnc(-c2csc(CN(C)CCCN(C)C)n2)c2[nH]cc(C(=O)C(=O)N3CCC(=C(C#N)c4ccccc4)CC3)c12; < 0.3 nM

Would you kindly look at the next entry?
For the compound shown here, "COc1cnc(-c2csc(C(=O)NCCO)n2)c2[nH]cc(C(=O)C(=O)N3CCC(=C(C#N)c4ccccc4)CC3)c12" , give the reported IC50. < 0.3 nM
